MEASUREMENT_NOTES: Components of the Cytosolic LPS Sensing Pathway: Gene Identification via Genome-wide siRNA Screen
APPLIED_CONDITIONS: RAW264.7 macrophages, IL-1a HTRF, actives lie on both sides, screened at 100 nM (by protocol), cells primed 5 h with Pam3CSK4 first
Method: Non-canonical inflammasome activation by cytosolic LPS is a critical component of the host response to Gram-negative bacterial infection, however we lack a comprehensive understanding of the cellular processes that control this pathway. […] Lipofectamine RNAiMAX Transfection Reagent ([…]; Invitrogen) was added in […] serum-free, antibiotic-free media to plate wells using a Thermo Scientific Matrix WellMate and Microplate Stacker. […] The plates were read on an EnVision plate reader (PerkinElmer). […]
The campaign covered roughly 53,000 sequences. About 3,700 (7%) were called active. The entries come from a sample that favours actives as a whole.
Each record is given true if its reported z-score is strictly below 0.4. Records at or above 0.4 are given false.

# SEQUENCE_CHAIN, LABEL
records = [
    ("CCUACGAGUUUUGCAUUUATT against Slc25a51", "true"),
    ("GGCAGCAGAGAACAAGAAATT against Serbp1", "true"),
    ("GGGAUUUCUGGAGAAAAUGTT against Csta2", "true"),
    ("GGAGGAAGUUGAAAAUGAATT against Myom2", "true"),
    ("GCCUGCAUUGCAAAUGAAATT against Krtap13-1", "true"),
]

Request: In the record for UACCAGAAGUACCUGUCCCTT against Lbx1 , is z-score less than 0.4?
Response: false

###

MEASUREMENT_NOTES: Components of the Cytosolic LPS Sensing Pathway: Gene Identification via Genome-wide siRNA Screen;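 also: robust z of the log signal after scaling to non-targeting control siRNA wells of the plate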
APPLIED_CONDITIONS: RAW264.7 macrophages, IL-1a HTRF, actives lie on both sides, screened at 100 nM (by protocol), cells primed 5 h with Pam3CSK4 first
Procedure: Non-canonical inflammasome activation by cytosolic LPS is a critical component of the host response to Gram-negative bacterial infection, however we lack a comprehensive understanding of the cellular processes that control this pathway. […] Lipofectamine RNAiMAX Transfection Reagent ([…]; Invitrogen) was added in […] serum-free, antibiotic-free media to plate wells using a Thermo Scientific Matrix WellMate and Microplate Stacker. […] The plates were read on an EnVision plate reader (PerkinElmer). […]
The campaign covered roughly 53,000 sequences. About 3,700 (7%) were called active.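 The calls were made as follows: active = gene knockdowns whose robust z-score for IL-1 alpha signal is at least 2 or at most -2, so actives lie on both sides; inactive = the rest.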 This excerpt belongs to a sample that is enriched for actives.
Choose the fitting class; nothing outside active, inactive is accepted.

# SEQUENCE_CHAIN, LABEL
measured = [
    ("GCUGUAACCAACAUACCUCTT against Inka1", "inactive"),
    ("GCGGGACUGACCUCUUAAUTT against Guk1", "inactive"),
    ("GGGACAAGUUCAUCUGAUATT against Rin1", "active"),
    ("GCUGUGAAUUCCAAAUGCGTT against Myh4", "active"),
    ("GGGUUUCUUGUUGGUUUUATT against Dock5", "active"),
]

Request: So what was the verdict on GGUGUUCCUAUAAAAGUAUTT against Tfb2m in this test?
Response: inactive

Request: Now the sequence GCAGCUGUCCGUAUAUCUUTT against Uxt
Response: inactive

Request: Queued: CCUCCUCUCCUAAAUGCCUTT against Llcfc1
Response: inactive

Request: What do we get for CGAGGAUGAGUUCAGUGAGTT against Pdcl3 ?
Response: inactive

Request: Likewise for GGGCCUUCAAAAAACUGCCTT against Eva1b ?
Response: inactive

Request: What would you report for CCGAUUAAAAGAGUGUUUGTT against Nudt8 ?
Response: inactive

Request: One more sequence: GGAACCUCUUGGACAAAGATT against Cpne5
Response: active

Request: Likewise for CCAAUAACUCUAAAUAGGCTT against Trhr ?
Response: inactive

Request: Lookup GCGUGGAUUACAUUUCUCUTT against Depdc1a
Response: inactive

Request: Also, GGAUUAGACUGUCUUCAGCTT against Rnf144a please.
Response: inactive

Request: Quick one: CGUGGAAAAGCUAUGUGCGTT against Lif
Response: inactive

Request: Now this one: GGAGUUUUCUCGAAACUUCTT against Fate1
Response: inactive

Request: For GGAUGGGUCAAUGUUCUACTT against V1rb6 then?
Response: inactive

Request: Param item: GGACUGUACAGUGGCAUUATT against Cd70
Response: inactive

Request: What do we get for GGGAUCAUAAAGAUAACUUTT against Fasn ?
Response: active

Request: GCUGAUGGUAAAUUCACAGTT against Serpinb3c
Response: inactive

###

MEASUREMENT_NOTES: Components of the Cytosolic LPS Sensing Pathway: Gene Identification via Genome-wide siRNA Screen;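 also: robust z of the log signal after scaling to non-targeting control siRNA wells of the plate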
APPLIED_CONDITIONS: RAW264.7 macrophages, IL-1a HTRF, actives lie on both sides, screened at 100 nM (by protocol), cells primed 5 h with Pam3CSK4 first
Description: Non-canonical inflammasome activation by cytosolic LPS is a critical component of the host response to Gram-negative bacterial infection, however we lack a comprehensive understanding of the cellular processes that control this pathway. […] Lipofectamine RNAiMAX Transfection Reagent ([…]; Invitrogen) was added in […] serum-free, antibiotic-free media to plate wells using a Thermo Scientific Matrix WellMate and Microplate Stacker. […] The plates were read on an EnVision plate reader (PerkinElmer). […]
The whole screen tested about 53,000 sequences, of which about 3,700 (7%) were called active.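 The calls were made as follows: active = gene knockdowns whose robust z-score for IL-1 alpha signal is at least 2 or at most -2, so actives lie on both sides; inactive = the rest.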 This is one part of a sample in which actives are shown more often than they occur.
Lab note: assign the record to one of class 1 for active, class 0 for inactive

Please review the following examples before continuing.
# SEQUENCE_CHAIN, LABEL
rows = [
    ("CGGCUUCUUAGGAAACUCUTT against Olfr358", "class 0"),
    ("CCAGGUCGAACUUCUGUGCTT against Slc39a8", "class 0"),
    ("CCUCCACUAUACGGUAAGUTT against Pla2g2c", "class 1"),
    ("GGCGAUUAAACUAUACAUUTT against Rrm2", "class 0"),
    ("GGUUACCAGAAAAUAACUATT against E130114P18Rik", "class 0"),
    ("GGCUUUCAGUUAUUUGACATT against Zfp709", "class 0"),
    ("GGAUUCUCACAAGUAAUUCTT against Ifi203", "class 0"),
    ("GGAGGAAUUCAUUAGAAACTT against Psmc1", "class 1"),
]

Request: Which result was noted for this sequence in the test: GCGAGUUCGGAAGAAGUAUTT against Ddx41
Response: class 0

Request: Now consider CCUAUGAUUCAGCAAUACUTT against Col17a1 .
Response: class 0

Request: Further, for GGAUGACUUGAUUAUCUUUTT against Adrm1 ?
Response: class 0

Request: Now consider GGUCCAUUGGGAGUUUGAGTT against Slc2a6 and answer again.
Response: class 1

Request: What do you have for GGCAGACCCAUAAUUAAUCTT against Arsk ?
Response: class 0

Request: What about CGACCUAUUAGAGAGCAACTT against Zfp248 ?
Response: class 1

###

MEASUREMENT_NOTES: Components of the Cytosolic LPS Sensing Pathway: Gene Identification via Genome-wide siRNA Screen;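 also: robust z of the log signal after scaling to non-targeting control siRNA wells of the plate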
APPLIED_CONDITIONS: RAW264.7 macrophages, IL-1a HTRF, actives lie on both sides, screened at 100 nM (by protocol), cells primed 5 h with Pam3CSK4 first
Among all 53,000 sequences or so, about 3,700 (7%) were called active. Many of the other results were omitted from the sample, so actives are more common in it than they were.
# label = true if z-score < -0.3 else false

These solved cases illustrate the format of a correct answer.
# SEQUENCE_CHAIN, LABEL
measured = [
    ("GGAAUAAAGCUCAUCUACGTT against Slc43a2", "false"),
    ("GGGUUAGAGUAAGGUAUUATT against Tsn", "true"),
    ("GGAAAAGUUAGCGUGUAAUTT against Prkcz", "true"),
    ("GGAGAAUGAAGAGUUAGACTT against Nfu1", "false"),
    ("GCCAGUAGUAGUAGAAUAATT against Gm4841", "false"),
]

Request: Is -0.3 strictly greater than the sequence's reported z-score? sequence: GGGUGGUGGCAUUAAACUUTT against Stk36
Response: false

Request: Check CCCUUAUUGAUUCUUCAAGTT against Ngp too.
Response: false

Request: Same question for GCUAAAACCCGUUACUUCCTT against Gsta4 please.
Response: false

###

MEASUREMENT_NOTES: Components of the Cytosolic LPS Sensing Pathway: Gene Identification via Genome-wide siRNA Screen;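 also: robust z of the log signal after scaling to non-targeting control siRNA wells of the plate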
APPLIED_CONDITIONS: RAW264.7 macrophages, IL-1a HTRF, actives lie on both sides, screened at 100 nM (by protocol), cells primed 5 h with Pam3CSK4 first
Procedure: Non-canonical inflammasome activation by cytosolic LPS is a critical component of the host response to Gram-negative bacterial infection, however we lack a comprehensive understanding of the cellular processes that control this pathway. […] Lipofectamine RNAiMAX Transfection Reagent ([…]; Invitrogen) was added in […] serum-free, antibiotic-free media to plate wells using a Thermo Scientific Matrix WellMate and Microplate Stacker. […] The plates were read on an EnVision plate reader (PerkinElmer). […]
In all, about 53,000 sequences went through this assay and about 3,700 (7%) were called active. Many of the other results were omitted from the sample, so actives are more common in it than they were.
The reader will find reported z-score values listed item by item below.
Give the value as a plain number.

# SEQUENCE_CHAIN, VALUE_REPORTED
data = [
    ("GGUCCUUAUCGCUUGGAUGTT against Vwa8", -0.202),
    ("GCAGUUAUGUUAUAGCUGCTT against Ctu2", 0.0152),
    ("CCAUUUAUAUCAGGCAUCATT against Lrit1", -0.647),
    ("GGCCAGAACUUAAAUUUUCTT against Nbr1", 0.658),
    ("GCCCUACCCUCAUCAUAAATT against Tmem94", -1.36),
]

Request: What z-score value was documented for this sequence, CGAAGGGAUUGAUUUGACUTT against Kars ?
Response: -0.324

Request: Queued: CCUCAUUGUGUCGUCUUACTT against Zer1
Response: -0.421

Request: What do you get for GGUCGUCUGAUUUUUGAUATT against Atp1a1 ?
Response: 0.391

Request: And for GGCUUUCAAGCUAACUGAUTT against Sf3b2 ?
Response: -2.39

Request: Now the same for GGUUAGGCACAAAUAAGUUTT against B230206H07Rik
Response: 1.08

Request: # iterate: GGCAUCUGACGAUAAUGAUTT against Lman2l
Response: -0.337
